Give IPOHE percentage phytotoxicity for every item shown.
- Tested on: Ipomoea hederacea (IPOHE)
- Assay method text: Post-emergence glasshouse spray test, visual percentage phytotoxicity after 13 days
- Assay type: in vivo
- Recorded conditions: B1; 10 g/ha post-emergence
Numbers only, in %.

Consider the following illustrative entries.
* Nc1c(F)c(-c2ccc3cc[nH]c3c2F)nc(C(=O)O)c1Cl | 50
* CS(=O)(=O)c1ccc(C(=O)C2C(=O)CCCC2=O)c(Cl)c1OCCC1OCCO1 | 48
* COc1c(Cl)ccc(-c2nc(C(=O)OCc3ccccc3)c(Cl)c(N)c2F)c1F | 53

Now, please, on to the next compound.
[in] With Ipomoea hederacea (IPOHE) as the test system, provide measured IPOHE percentage phytotoxicity for this compound: FC(F)c1cc(-c2c(Cl)cccc2Oc2ncc(Cl)cn2)on1
[out] 60
